test: Pharmacokinetics after IV or oral administration in dog; assay type: in vivo; conditions: male, plasma; Beagle dog M, PO, capsule (powder), 50 mg/kg as Compound 1 (free acid)
Assay Endpoint: Tmax
# output: number + unit

Query string: Fill in the blank: the reported Tmax of CN(NC(=O)CC(=O)NN(C)C(=S)c1ccccc1)C(=S)c1ccccc1 is ____.
Result string: 1 h

----------
Assay: Pharmacokinetics after IV or oral administration in rat
Format: in vivo, SD rat
Details: male, Sprague-Dawley, rat, plasma, iv, 80 mg/kg, SD rat M, IV bolus, HP-β-CD/saline
Procedure: The pharmacokinetics of compounds of the invention were compared in mouse, rat and dog by either intravenous or oral administration in various formulations including drug powder in capsules or in combination with generally recognized as safe (GRAS) excipients. […] Compounds were extracted by protein precipitation and analyzed by LC-UV or LC-MS/MS. […] Oral bioavailability (% F) was calculated based on AUC of Compound 1. […]
Assay Endpoint: Cmax
State the value, then name its unit.

Query string: Data request, read-out Cmax, for CN(NC(=O)CC(=O)NN(C)C(=S)c1ccccc1)C(=S)c1ccccc1 [Compound 1]
Result string: 58.8 µg/mL

----------
test: Pharmacokinetics after IV or oral administration in dog; format: in vivo; settings: male, beagle, dog, plasma, po, 50 mg/kg, Beagle dog M, TPGS/PEG400 (sol'n)
Assay Endpoint: half-life (h)
Numeric only. Scale: h

Query string: Which measured half-life value corresponds to CN(NC(=O)CC(=O)NN(C)C(=S)c1ccccc1)C(=S)c1ccccc1 ?
Result string: 2.2

----------
experiment: Pharmacokinetics after IV or oral administration in rat; type: in vivo, SD rat; settings: male, Sprague-Dawley, rat, plasma, po, 50 mg/kg, SD rat M, TPGS/PEG400 (sol'n); reference Compound 1 IV bolus
Assay Endpoint: bioavailability

Query string: For the molecule CN(NC(=O)CC(=O)NN(C)C(=S)c1ccccc1)C(=S)c1ccccc1 [Compound 1] , what bioavailability is on record?
Result string: 14.9%

----------
assay: Pharmacokinetics after IV or oral administration in rat; assay type: in vivo, SD rat; conditions: male, Sprague-Dawley, rat, plasma, iv, 25 mg/kg, SD rat M, IV bolus, Saline
Assay Endpoint: half-life (h)
The reply should be a number in h, with the unit left off.

Query string: Dear colleague, I am looking for the recorded half-life of the following molecule: CN(NC(=O)CC(=O)NN(C)C(=S)c1ccccc1)C(=S)c1ccccc1 [Compound 22]
Result string: 3.7

----------
test: Pharmacokinetics after IV or oral administration in rat; type: in vivo, SD rat; settings: male, Sprague-Dawley, rat, plasma, iv, 25 mg/kg, SD rat M, IV bolus, EES (sol'n)
Assay Endpoint: Tmax (min)
Dear colleague, please return just the value in min, with no unit written.

Query string: State the recorded Tmax for this entry: CN(NC(=O)CC(=O)NN(C)C(=S)c1ccccc1)C(=S)c1ccccc1
Result string: 4.98

----------
assay: Pharmacokinetics after IV or oral administration in dog; type: in vivo; settings: male, beagle, dog, plasma, po, 50 mg/kg, Beagle dog M, capsule (powder), 50 mg/kg as Compound 1 (free acid)
Assay Endpoint: Tmax (h)
Number only, in h; omit the unit.

Record Smiles: CN(/N=C(\[O-])C/C([O-])=N/N(C)C(=S)c1ccccc1)C(=S)c1ccccc1.[Na+].[Na+]
Assay Endpoint: Tmax
Unit Label: h
Value Measured: 0.8

// switching to the query compound
Query string: Entry under review: CN(NC(=O)CC(=O)NN(C)C(=S)c1ccccc1)C(=S)c1ccccc1 . Reported Tmax?
Result string: 2

----------
assay: Pharmacokinetics after IV or oral administration in dog; type: in vivo; conditions: male, beagle, dog, plasma, po, 50 mg/kg, Beagle dog M, TPGS/PEG400 (sol'n); reference Compound 1 IV infusion
Assay Endpoint: bioavailability (%)
Quick reminder: number only, in %, skip the unit.

Query string: Can you share its bioavailability? I mean this molecule: CN(NC(=O)CC(=O)NN(C)C(=S)c1ccccc1)C(=S)c1ccccc1 [Compound 1]
Result string: 68

----------
experiment: Pharmacokinetics after IV or oral administration in rat; type: in vivo, SD rat; settings: male, Sprague-Dawley, rat, plasma, po, 50 mg/kg, SD rat M, capsule (powder), 50 mg/kg as Compound 1 (free acid)
Assay Endpoint: half-life
Could you write the number and then its unit?

Query string: For the compound shown here, CN(NC(=O)CC(=O)NN(C)C(=S)c1ccccc1)C(=S)c1ccccc1 [Compound 26] , give the reported half-life.
Result string: 3.7 h

Query string: Now give it for CN(/N=C(\[O-])C/C([O-])=N/N(C)C(=S)c1ccccc1)C(=S)c1ccccc1.[Na+].[Na+] [Compound 19] too.
Result string: 3.9 h

----------
assay: Pharmacokinetics after IV or oral administration in rat; type: in vivo, SD rat; settings: male, Sprague-Dawley, rat, plasma, po, 50 mg/kg, SD rat M, Phospholipid
Assay Endpoint: AUC(0-inf) (ng·h/mL)
Quick note: give the figure in ng·h/mL, leave out the unit.

Query string: What does the data say about its AUC(0-inf)? Entry: CN(NC(=O)CC(=O)NN(C)C(=S)c1ccccc1)C(=S)c1ccccc1
Result string: 3790

----------
assay: Pharmacokinetics after IV or oral administration in mouse; type: in vivo; conditions: female, plasma; CD-1 mouse F, PO, TPGS/PEG400 (sol'n), 100 mg/kg
Assay Endpoint: half-life (h)
Just the number please, in h, no unit attached.

Query string: Would you kindly share the measured half-life for CN(NC(=O)CC(=O)NN(C)C(=S)c1ccccc1)C(=S)c1ccccc1 ?
Result string: 1

----------
assay: Pharmacokinetics after IV or oral administration in rat; assay type: in vivo, SD rat; conditions: male, Sprague-Dawley, rat, plasma, po, 50 mg/kg, SD rat M, capsule (powder), 50 mg/kg as Compound 1 (free acid)
Assay Endpoint: Cmax
Report the figure along with its unit, number first.

Record Smiles: CN(/N=C(\[O-])C/C([O-])=N/N(C)C(=S)c1ccccc1)C(=S)c1ccccc1.[Na+].[Na+]
Value Measured: 640 ng/mL

With those in mind, consider the next molecule.
Query string: What does the data say about its Cmax? Entry: CN(NC(=O)CC(=O)NN(C)C(=S)c1ccccc1)C(=S)c1ccccc1
Result string: 250 ng/mL

----------
assay: Pharmacokinetics after IV or oral administration in rat; format: in vivo, SD rat; settings: male, Sprague-Dawley, rat, plasma, po, 50 mg/kg, SD rat M, Phospholipid
Assay Endpoint: bioavailability (%)
Numbers only; they are read as %.

Query string: Quick one: bioavailability of CN(NC(=O)CC(=O)NN(C)C(=S)c1ccccc1)C(=S)c1ccccc1 ?
Result string: 8.8

----------
test: Pharmacokinetics after IV or oral administration in rat; format: in vivo, SD rat; conditions: male, Sprague-Dawley, rat, plasma, po, 50 mg/kg, SD rat M, nanoparticles (colloidal dispersion)
Assay Endpoint: AUC(0-inf) (ng·h/mL)
Quick reminder: number only, in ng·h/mL, skip the unit.

Query string: Given the compound CN(NC(=O)CC(=O)NN(C)C(=S)c1ccccc1)C(=S)c1ccccc1 [Compound 1] , what is its reported AUC(0-inf)?
Result string: 2370

----------
assay: Pharmacokinetics after IV or oral administration in rat; format: in vivo, SD rat; conditions: male, Sprague-Dawley, rat, plasma, other: PI, 80 mg/kg, SD rat M, route PI, Lyophilized HP-β-CD/saline, 80 mg/kg
Assay Endpoint: half-life (h)
Form entry: value (h) — number only.

Query string: // half-life lookup, key: CN(NC(=O)CC(=O)NN(C)C(=S)c1ccccc1)C(=S)c1ccccc1 [Compound 1]
Result string: 2.3

----------
test: Pharmacokinetics after IV or oral administration in rat; format: in vivo, SD rat; conditions: male, Sprague-Dawley, rat, plasma, po, 50 mg/kg, SD rat M, capsule (powder), 50 mg/kg as Compound 1 (free acid); reference Compound 1 IV bolus; based on AUC of Compound 1
Assay Endpoint: bioavailability
A complete answer gives the number and then names the unit.

Query string: Which bioavailability is reported for this compound? CN(/N=C(\[O-])C/C([O-])=N/N(C)C(=S)c1ccccc1)C(=S)c1ccccc1.[Na+].[Na+]
Result string: 5.7%

----------
assay: Pharmacokinetics after IV or oral administration in rat; assay type: in vivo, SD rat; conditions: male, Sprague-Dawley, rat, plasma, po, 50 mg/kg, SD rat M, capsule (powder), 50 mg/kg as Compound 1 (free acid)
Attribute: Tmax
Give a bare numeral; the unit min is implied.

Query string: // Tmax lookup, key: CN(NC(=O)CC(=O)NN(C)C(=S)c1ccccc1)C(=S)c1ccccc1
Result string: 54

Query string: What do we get for CN(/N=C(\[O-])C/C([O-])=N/N(C)C(=S)c1ccccc1)C(=S)c1ccccc1.[Na+].[Na+] ?
Result string: 36

----------
assay: Pharmacokinetics after IV or oral administration in rat; format: in vivo, SD rat; conditions: male, Sprague-Dawley, rat, plasma, iv, 50 mg/kg, SD rat M, IV bolus, Phospholipid
Assay Endpoint: Tmax (min)
Hi! Could you send only the number? It should be in min, unit omitted.

Query string: Need Tmax of CN(NC(=O)CC(=O)NN(C)C(=S)c1ccccc1)C(=S)c1ccccc1 [Compound 1] , thanks.
Result string: 4.98
